Where do the numbers come from? From PubChem BioAssay AID1347165.

# Measured Target: Lysine-specific demethylase 5B (Homo sapiens)
# Method Description: Primary screen for KDM5B Histone Demethylases FDH-coupled qHTS; further: nearly all actives have a fitted effect of over 70% in size
# Assay Context: FDH-coupled NADH fluorescence (FDH is formaldehyde dehydrogenase); series mostly up to 57.7 µM
The whole screen tested about 220,000 compounds, of which about 5,700 (2.6%) were called active. Roughly 18% stayed inconclusive and do not appear here. The call rests on the fitted dose curve; in most records, active means well fitted inhibition curve with a large enough effect; inconclusive means small, poorly fitted or top-dose-only effect; inactive means no such curve, though single readings can be large or run the other way. Only a selection was taken, and actives are over-represented in it overall.
Permitted responses: yes (active), no (inactive)

For Cn1cccc1CN1CCC2(CC1)CNc1ccccc1[S+](=O)([O-])N2 , which call appears in the assay record?
no

Kindly provide the recorded test outcome for the following compound: Cc1cc(C)n(CC(=O)N2CCCC3(C2)Nc2cccnc2NC3=NC2CCCC2)n1 (stereo not given)
yes

Short answer needed: outcome of this test for O=C(Nc1ccc(Cl)cc1)C1CCN(C(=O)c2ncn3c2COC(c2ccc(F)cc2)C3)CC1 (stereo not given) ?
no

Recorded call for CN(CC1CCN(CCc2cccc(F)c2)CC1)C(=O)c1cn2cccnc2n1 ?
yes

Outcome? Cc1nc2sc3c(c2c2nc(-c4ccc(O)cc4)nn12)CC(C)(C)OC3
no

Please state the recorded outcome for this compound: CCOc1ccc(CC(=O)N2CCCC3(C2)Nc2cccnc2NC3=NC2CCCC2)cc1 (stereo not given)
yes

# lookup: test call for CCCn1nc(C(=O)OCc2nc(-c3cccc(OC)c3)no2)c2ccccc2c1=O
no

Test call, this compound: CN1CCc2c([nH]c3ccccc23)C12CCN(C(=O)c1nccc3ccccc13)CC2
no

What did this assay record as the result for COc1ccc2c(c1)C=C(C(=O)NCc1cc(Br)ccc1OC)CO2 ?
no

// param item: CC(=O)c1c(SCC(=O)Nc2ccc(F)cc2F)nc(=O)[nH]c1C ; yields the recorded call
no

Please share the test call associated with COc1ccccc1C(=O)N1CCC2(C1)C(=NC1CCCC1)NC(=O)N2c1cccnc1 (stereo not given) .
no

Hey, what did the test say about COc1ccccc1C(=O)N1CCC2(C1)C(=NC1CCCCC1)NC(=O)N2c1cccnc1 (stereo not given) ?
no

What classification did COc1ccc(CCC(=O)N2C[C@@H](Oc3ccccc3)C[C@H]2C(=O)N2CCOCC2)cc1 end up with in this test?
no

Check the results log: what was the call for COc1ccc(CNC(=O)c2cc3n(n2)CC(c2ccc4c(c2)OCO4)OC3)c(OC)c1 (stereo not given) ?
yes

Entry COc1ccc2[nH]c(C(=O)N3C[C@@H](Oc4ccccc4)C[C@H]3C(=O)N3CCCC3)cc2c1 : call = ?
no

// return assay outcome for CN(CCc1ccccn1)C(=O)c1ccc(OC2CCN(CCc3ccccc3)CC2)cc1
no

Call for entry O=C(OCc1cccc(Cl)c1)c1ccc(N2CCOCC2)nc1 :
no

Hi team, can someone confirm the assay call for CCOC(=O)C1CCN(C(=O)c2cccc(S(=O)(=O)N(CC)c3ccccc3)c2)CC1 ?
no

Call for entry CC(C)C(NC(=O)Cc1ccc(N2CCCC2=O)cc1)c1nc2ccccc2[nH]1 (stereo not given) :
no

Hi team, can someone confirm the assay call for Cc1ccc(NC(=O)c2cc3n(n2)CC(c2ccc4c(c2)OCO4)OC3)cc1C (stereo not given) ?
yes

Hi, sorry to bother you, what did the test record for CCOc1ccc(CC(=O)N2CCC(C3CCN(C(=O)NC)CC3)C2)cc1 (stereo not given) ?
no

Lab log entry: Cc1cccc(N2CCN(C(=O)c3cc4n(n3)CC(c3ccc(Cl)cc3)OC4)CC2)c1 (stereo not given) — outcome as called in the assay?
no

For O=C(c1ccnc(-c2nnc3ccc(N4CCOCC4)nn23)c1)N1CCCCC1 , which call appears in the assay record?
no

What classification did Cc1cc(C)n(CC(=O)N2CCC3(CC2)NCCc2c3[nH]c3ccccc23)n1 end up with in this test?
no

Hi team, can someone confirm the assay call for COc1ccc2[nH]c3c(c2c1)CCNC31CCN(C(=O)c2ccccc2)CC1 ?
no

Each compound tested received a call. Report the one for Cc1ccc(S(=O)(=O)NCCC(=O)Nc2cccc(S(N)(=O)=O)c2)cc1C .
no

So what was the verdict on O=C(NCc1ccccc1C(F)(F)F)c1cc2n(n1)CC(c1ccc3c(c1)OCO3)OC2 (stereo not given) in this test?
yes

Query: recorded result category for Cc1ccc2ncc([N+](=O)[O-])cc2c1 in this test
no

For O=C1CC(c2noc(-c3ccc(F)c(Cl)c3)n2)CN1c1ccc(F)cc1 (stereo not given) , which call appears in the assay record?
no

Hi, sorry to bother you, what did the test record for Cc1ccc(-c2nc(C3CC(=O)N(c4ccc(Cl)cc4)C3)no2)cc1C (stereo not given) ?
no

Each compound tested received a call. Report the one for Cc1cc(C)n(CC(=O)N2CC[C@@H]3CN(S(C)(=O)=O)[C@@H]3C2)n1 .
no

What outcome does the record of this test show for Cc1cc2oc(=O)cc(CN3CCN(S(=O)(=O)c4ccc5c(c4)OCCO5)CC3)c2cc1C(C)C ?
no

Given COc1ccc2cc(C(=O)N3C[C@@H](Oc4ccccc4)C[C@H]3C(=O)N3CCOCC3)[nH]c2c1 , state the outcome it received in this test.
yes

Dear colleague, could you share the recorded outcome for CCCn1nc(C(=O)OCc2nc(N)nc(Nc3ccccc3C)n2)c2ccccc2c1=O when you have a moment?
no

So what was the verdict on Cc1ccc(NC(=O)c2cn3c4c(ccc(Cl)c4c2=O)OC(C)C3)cc1C (stereo not given) in this test?
no

Kindly provide the recorded test outcome for the following compound: COc1cccc(CNC(=O)N2CCN(Cc3ccc(Br)s3)CC2)c1
no

Answer briefly: the call reported for COc1ccccc1C(=O)N1CCCC2(C1)Nc1cccnc1NC2=NCc1ccccc1 (stereo not given) in this assay.
yes

What outcome does the record of this test show for COc1cccc(N2C(=O)NC(=NC3CCCC3)C23CCN(C(=O)c2ccc(C)cc2)C3)c1 (stereo not given) ?
no

# fetch the recorded call for CN(Cc1nccn1C)C(=O)c1cc(CN2CCC(Cc3ccccc3)CC2)on1 here
no

Call for entry COc1cccc(CNC(=O)N2CCCC3(C2)Nc2cccnc2NC3=NC2CCCC2)c1 (stereo not given) :
yes
